readout.label: IC50 (nM)
Response body: numeric value in nM, unit text excluded.

I looked up CC(C)(C)c1nc2c3ccc(F)cc3c3c(=O)[nH]ccc3c2[nH]1 and its IC50 for Fibroblast growth factor receptor 2 (Homo sapiens) was 940

====

Target: Inhibitor of nuclear factor kappa-B kinase subunit beta (Homo sapiens, UniProt O14920)
Sequence (O14920 whole entry): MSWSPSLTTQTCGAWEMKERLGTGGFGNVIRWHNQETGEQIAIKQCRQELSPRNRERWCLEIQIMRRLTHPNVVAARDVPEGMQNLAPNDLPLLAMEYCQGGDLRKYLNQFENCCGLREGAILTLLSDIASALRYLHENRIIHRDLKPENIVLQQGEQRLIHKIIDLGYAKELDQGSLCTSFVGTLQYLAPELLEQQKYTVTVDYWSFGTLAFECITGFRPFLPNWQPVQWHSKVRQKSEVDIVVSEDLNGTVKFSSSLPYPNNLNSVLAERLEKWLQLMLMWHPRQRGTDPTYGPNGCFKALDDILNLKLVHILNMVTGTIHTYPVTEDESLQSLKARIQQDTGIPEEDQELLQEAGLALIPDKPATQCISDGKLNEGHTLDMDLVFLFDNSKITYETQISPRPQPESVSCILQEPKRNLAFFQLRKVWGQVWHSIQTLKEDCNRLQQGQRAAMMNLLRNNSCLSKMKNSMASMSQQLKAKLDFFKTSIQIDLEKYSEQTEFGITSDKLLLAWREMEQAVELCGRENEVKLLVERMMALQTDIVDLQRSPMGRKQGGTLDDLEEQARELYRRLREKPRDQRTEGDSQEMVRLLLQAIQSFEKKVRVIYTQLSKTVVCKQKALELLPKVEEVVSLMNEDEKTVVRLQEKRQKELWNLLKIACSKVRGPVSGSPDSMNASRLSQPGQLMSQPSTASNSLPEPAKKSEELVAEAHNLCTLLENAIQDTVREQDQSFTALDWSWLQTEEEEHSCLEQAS
Assay: Inhibition of I-kappa-B kinase 2
readout.label: IC50 (nM)
Response body: numeric value in nM, unit text excluded.

The reported IC50 of the molecule CC(C)(C)c1nc2c3ccc(F)cc3c3c(=O)[nH]ccc3c2[nH]1 was 300
